System: W2
Experiment: qHTS profiling for inhibitors of Plasmodium falciparum proliferation (AID 504749); note: nearly all actives have a fitted effect of over 60% in size
Conditions: P. falciparum in erythrocytes, SYBR Green DNA, 72 h; series mostly up to 28.7 µM
Inconclusive results are not listed. Activity calls are given as the source filed them. Calls come from the whole dose curve; as a rule, active = well fitted inhibition curve with a large enough effect; inconclusive = small, poorly fitted or top-dose-only effect; inactive = flat fitted curve, though single readings scatter.
// one of active, inactive, no free text

Enquiry: Name the outcome recorded for CC1C(=O)C(=O)C=CN1C (stereo not drawn) in the assay.
Return: inactive

Enquiry: Name the outcome recorded for COC(c1ccccc1)(c1ccccc1)C(Oc1nc(C)cc(C)n1)C(=O)O (stereo not drawn) in the assay.
Return: inactive

Enquiry: Name the outcome recorded for C[N+]12CCCC[C@@H]1CCC(=C(c1cccs1)c1cccs1)C2 (stereo partly drawn) in the assay.
Return: active

Enquiry: Name the outcome recorded for C=C[C@H]1CN2CCC1C[C@H]2[C@H](O)c1ccnc2ccc(OC)cc12 (stereo partly drawn) in the assay.
Return: active

Enquiry: Name the outcome recorded for COC1CC2CCC(C)[C@](O)(O2)C(=O)C(=O)N2CCCCC2C(=O)OC(C(C)CC2CCC(O)C(OC)C2)CC(=O)C(C)/C=C(/C)C(O)C(OC)C(=O)C(C)CC(C)C=CC=C/C=C\1C (stereo partly drawn) in the assay.
Return: active

Enquiry: Name the outcome recorded for Nc1nc(Cl)nc2c1ncn2[C@@H]1O[C@H](CO)[C@H](O)C1F (stereo partly drawn) in the assay.
Return: inactive

Enquiry: Name the outcome recorded for C=C(CC[C@@H](C)[C@H]1CCC2[C@]1(C)CC[C@]13C[C@@]14CCC(OC(=O)/C=C/c1ccc(O)c(OC)c1)C(C)(C)[C@@H]4CC[C@@]23C)C(C)C (stereo partly drawn) in the assay.
Return: inactive

Enquiry: Name the outcome recorded for CO/N=C(/C(=O)N[C@@H]1C(=O)N2C(C(=O)O)=C(CSc3cnns3)CS[C@H]12)c1csc(N)n1 in the assay.
Return: inactive
